Taken from ChEMBL document CHEMBL1201862.

- tested.system: Corticotropin-releasing factor receptor 2/Corticotropin-releasing factor-binding protein (Homo sapiens, UniProt P24387+Q13324)
- Sequence (Q13324 whole entry): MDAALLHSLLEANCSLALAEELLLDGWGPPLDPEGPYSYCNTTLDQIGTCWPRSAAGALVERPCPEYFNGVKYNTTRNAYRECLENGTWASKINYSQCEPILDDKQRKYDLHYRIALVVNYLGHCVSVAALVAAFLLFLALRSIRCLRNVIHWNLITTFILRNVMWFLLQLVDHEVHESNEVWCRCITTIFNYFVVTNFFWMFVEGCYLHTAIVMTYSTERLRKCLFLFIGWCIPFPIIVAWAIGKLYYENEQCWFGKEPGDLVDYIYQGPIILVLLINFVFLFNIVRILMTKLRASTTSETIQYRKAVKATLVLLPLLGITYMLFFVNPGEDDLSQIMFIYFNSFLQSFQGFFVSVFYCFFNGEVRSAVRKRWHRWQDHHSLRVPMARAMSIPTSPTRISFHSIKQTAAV
- Sequence (P24387 whole entry): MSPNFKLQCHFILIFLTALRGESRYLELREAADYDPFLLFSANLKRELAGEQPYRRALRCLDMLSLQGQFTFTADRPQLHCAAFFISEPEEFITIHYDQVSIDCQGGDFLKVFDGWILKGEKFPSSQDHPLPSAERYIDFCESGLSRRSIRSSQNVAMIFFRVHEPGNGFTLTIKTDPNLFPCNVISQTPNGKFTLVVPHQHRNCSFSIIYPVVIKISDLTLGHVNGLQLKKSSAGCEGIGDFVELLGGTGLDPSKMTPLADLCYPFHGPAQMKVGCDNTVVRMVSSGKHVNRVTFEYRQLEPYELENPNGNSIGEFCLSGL
- procedure.details: activators of CRF receptor 2 with binding protein – uHTS hits, confirmation (AID 602473)
- Format: functional
- condition.notes: read-out: EC50_Mean
The source made the active and inactive calls. Cut-off read from the data, not from the text of the source: actives have a measured EC50 and inactives only a lower limit.
Response enum: yes (active), no (inactive)

Cc1noc(C)c1S(=O)(=O)N1CCC(C(=O)N2CCN(c3ccc(Cl)cc3)CC2)CC1; no
Cc1ccccc1N1C(=O)c2cccc3c(N(C)CCO)ccc(c23)C1=O; yes
CCOc1ccc(C(CCc2ccccc2)NC(=O)c2ccccc2OC)cc1OCC (stereo unspecified); no
CCCCN1CC(COCc2ccccc2)Oc2cccc(OCCN3C(=O)[C@@H]4[C@H](C3=O)C3C=C[C@H]4C3)c2S1(=O)=O (stereo partly specified); yes
O=C(CCCOc1ccc(Cl)cc1)Nc1cccc(C(=O)O)c1; no

Lookup: Would you mind telling me which call this test gave "Cc1c(C(=O)O)sc(S(=O)(=O)N2CCN(C(=O)Cc3ccc(F)cc3)CC2)c1C(=O)O" ?
Found: no

Lookup: Would you mind telling me which call this test gave "COc1ccc(C#Cc2c(-c3ccccc3)n(-c3ccccc3)c3ccc(CO)cc23)cc1" ?
Found: no

Lookup: Would you mind telling me which call this test gave "O=C(Oc1c(Br)cc([N+](=O)[O-])cc1Br)c1cccnc1" ?
Found: no

Lookup: Would you mind telling me which call this test gave "Cc1ccccc1Cn1ccc(NC(=O)c2cc3ncc(Br)cn3n2)n1" ?
Found: no

Lookup: Would you mind telling me which call this test gave COc1ccc2c(c1OC)C(=O)N1c3ccccc3COC21 (stereo unspecified) ?
Found: no

Lookup: Would you mind telling me which call this test gave "Cc1ccc2cccc(Oc3ncnc4scc(-c5ccccc5)c34)c2n1" ?
Found: no
